# Tested on: MCF-7 cells
# testSummary: Antiproliferative assay, MCF-7 cells, alamar Blue
# Type: cell-based
# testContext: concentration 10^-9 (unit not given)
measurementKind: % Inhibition (%)
Give bare numbers, in %.

Example compounds with recorded % Inhibition:
Briefly, % Inhibition measured for `COc1cccc(N2N=Cc3cc(O)ccc3B2O)n1` : 0

Briefly, % Inhibition measured for `OB1c2ccc(O)cc2C=NN1c1ccccn1` : 5

Briefly, % Inhibition measured for `O=C1OB2c3ccc(O)cc3C=NN2c2ccccc21` : 0

Consider the record given below.
Briefly, % Inhibition measured for CC/C(=C(\c1ccccc1)c1ccc(OCCN(C)C)cc1)c1ccccc1 [tamoxifen, reference compound] : 0

---

Could you please report measured % Inhibition for the items listed next?
# Tested on: MCF-7 cells
# testSummary: Antiproliferative assay, MCF-7 cells, alamar Blue
# Format: cell-based
# testContext: concentration 10^-6 (unit not given)
Numbers only, in %.

Record % Inhibition per entry; entries follow.
1. OB1c2ccc(O)cc2C=NN1c1ccccn1
2. COc1cccc(N2N=Cc3cc(O)ccc3B2O)n1
3. CC/C(=C(\c1ccccc1)c1ccc(OCCN(C)C)cc1)c1ccccc1 [tamoxifen, reference compound]
4. O=C1OB2c3ccc(O)cc3C=NN2c2ccccc21

[out]
[10, 3, 54, 4]

---

# Tested on: MCF-7 cells
# testSummary: Antiproliferative assay, MCF-7 cells, alamar Blue
# Format: cell-based
# testContext: concentration 10^-5 (unit not given)
Could you please report measured % Inhibition for the items listed next?
Answers without a unit are incomplete; give the number and then its unit.

Briefly, % Inhibition measured for `O=C1OB2c3ccc(O)cc3C=NN2c2ccccc21` : 13%

Record % Inhibition per entry; entries follow.
1. CC/C(=C(\c1ccccc1)c1ccc(OCCN(C)C)cc1)c1ccccc1 [tamoxifen, reference compound]
2. COc1cccc(N2N=Cc3cc(O)ccc3B2O)n1
3. OB1c2ccc(O)cc2C=NN1c1ccccn1

[out]
1. 95%
2. 62%
3. 55%
